Origin of values: patent US20220089678A1

Target: T1, human BCMA on cells (human, UniProt Q02223 1-184)
T1 sequence: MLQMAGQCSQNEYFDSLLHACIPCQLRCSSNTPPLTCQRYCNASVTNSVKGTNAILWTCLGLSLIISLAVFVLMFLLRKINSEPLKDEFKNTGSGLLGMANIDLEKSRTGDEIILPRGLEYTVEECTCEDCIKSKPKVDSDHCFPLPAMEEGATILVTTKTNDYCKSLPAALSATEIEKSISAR
Assay: cell-based or functional assay
Recorded Killing (% killed), Effector:target ratio of 1:2, one value per entry.
Dear colleague, please return just the value in %, with no unit written.

Below, 3 binders whose answers are already recorded.
>>> data_value("CAR comprising scFv-10′ (SEQ ID NO: 66) (other, CAR on mRNA-electroporated human CD8+ T cells; Only the scFv is identified; not shown: rest of the CAR (hinge, transmembrane, cytoplasmic domains) not specified for this construct) DIVLTQSPSSLSASVGDRATISCRASESVTILGSHLIHWYQQKPGQAPKLLIQLASNVQTGVPARFSGSGSGTDFTLTISSVEPEDVAVYYCLQSRTIPRTFGQGTKVEIKGSTSGSGKPGSGEGSTKGQIQLVQSGPELKKPGGSVKISCAASGYTFTSYSINWVRQAPGKGLEWVGWINTETREPAYAQGFTGRFTFSADTSKSTAYLQMNSLRAEDTAVYYCALDYLYSLDFWGQGTLVTVSS")
81
>>> data_value("CAR comprising scFv-1′ (SEQ ID NO: 62) (other, CAR on mRNA-electroporated human CD8+ T cells; Only the scFv is identified; not shown: rest of the CAR (hinge, transmembrane, cytoplasmic domains) not specified for this construct) DIVLTQSPSSLSASVGDRATISCRASESVTILGSHLIHWYQQKPGQAPKLLIQLASNVQTGVPARFSGSGSGTDFTLTISSVEPEDVAVYYCLQSRTIPRTFGQGTKVEIKGSTSGSGKPGSGEGSTKGQIQLVQSGPELKKPGGSVKISCAASGYTFTSYDINWVRQAPGKGLEWVGWINTETREPAYAYDFRGRFTFSADTSKSTAYLQMNSLRAEDTAVYYCALDYSYAMDYWGQGTLVTVSS")
3
>>> data_value("CAR comprising scFv-12′ (SEQ ID NO: 68) (other, CAR on mRNA-electroporated human CD8+ T cells; Only the scFv is identified; not shown: rest of the CAR (hinge, transmembrane, cytoplasmic domains) not specified for this construct) DIVLTQSPSSLSASVGDRATISCRASESVTILGSHLIHWYQQKPGQAPKLLIQLASNVQTGVPARFSGSGSGTDFTLTISSVEPEDVAVYYCLQSKNFPRTFGQGTKVEIKGSTSGSGKPGSGEGSTKGQIQLVQSGPELKKPGGSVKISCAASGYTFTSYDINWVRQAPGKGLEWVGWINTETREPAYAYDFRGRFTFSADTSKSTAYLQMNSLRAEDTAVYYCALDYLYSLDFWGQGTLVTVSS")
7

Note to self: Killing (% killed), Effector:target ratio of 1:2 recorded for CAR comprising scFv-4′ (SEQ ID NO: 63) (other, CAR on mRNA-electroporated human CD8+ T cells; Only the scFv is identified; not shown: rest of the CAR (hinge, transmembrane, cytoplasmic domains) not specified for this construct) DIVLTQSPSSLSASVGDRATISCRASESVTILGSHLIHWYQQKPGQAPKLLIQLASNVQTGVPARFSGSGSGTDFTLTISSVEPEDVAVYYCLQSRTIPRTFGQGTKVEIKGSTSGSGKPGSGEGSTKGQIQLVQSGPELKKPGGSVKISCAASGYTFTDYSINWVRQAPGKGLEWVGWINTETREPAYAYDFRGRFTFSADTSKSTAYLQMNSLRAEDTAVYYCALDYTYGMDYWGQGTLVTVSS was 78

Note to self: Killing (% killed), Effector:target ratio of 1:2 recorded for CAR comprising scFv-11′ (SEQ ID NO: 67) (other, CAR on mRNA-electroporated human CD8+ T cells; Only the scFv is identified; not shown: rest of the CAR (hinge, transmembrane, cytoplasmic domains) not specified for this construct) DIVLTQSPSSLSASVGDRATISCRASESVTILGSHLIHWYQQKPGQAPKLLIQLASNVQTGVPARFSGSGSGTDFTLTISSVEPEDVAVYYCLQSRTIPRTFGQGTKVEIKGSTSGSGKPGSGEGSTKGQIQLVQSGPELKKPGGSVKISCAASGYTFTSYDINWVRQAPGKGLEWVGWINTNTGNPTYAQGFTGRFTFSADTSKSTAYLQMNSLRAEDTAVYYCALDYTYGMDYWGQGTLVTVSS was 0
